The reported numbers originate from ChEMBL document CHEMBL5149989.

Test: Permeability across apical to basal side in human Caco-2 cells assessed as drug recovery preincubated with verapamil for 30 mins followed by compound addition measured at 0.5 to 2 hrs by LC-MS analysis relative to control
Format: ADME, cell-based
Settings: Caco-2, with verapamil (concentration not stated), time 1-2.5 hrs, read-out: Drug recovery
Non-standard residues stand in square brackets, D forms with d. Residues, ends and D or L forms follow the SMILES beside them. NMeL = CN[C@@H](CC(C)C)C(=O)O; Nva = CCC[C@H](N)C(=O)O; Sar = CNCC(=O)O
Exercise: for every item that follows, state its recorded recovery.
Quick note: give the figure in %, leave out the unit.

Task item: Give its recovery value. Item: CCC[C@@H]1NC(=O)[C@H](CC(C)C)N(C)C(=O)[C@H](CC(C)C)N(C)C(=O)[C@H](CC(C)C)N(C)C(=O)[C@H](CC(C)C)N(C)C(=O)[C@@H](C)NC(=O)[C@H](CCC(N)=O)NC(=O)[C@H](CC(C)C)N(C)C(=O)[C@H](C(C)C)NC(=O)[C@H](CC(C)C)N(C)C(=O)CN(C)C1=O (cyclo([NMeL][NMeL][NMeL][NMeL][Nva][Sar][NMeL]V[NMeL]Q[dA]))
Reply: 110

Task item: Give its recovery value. Item: CCC[C@@H]1NC(=O)[C@H](CC(C)C)N(C)C(=O)[C@H](CC(C)C)N(C)C(=O)[C@H](CC(C)C)N(C)C(=O)[C@H](CC(C)C)N(C)C(=O)[C@@H](C)NC(=O)[C@H](C)NC(=O)[C@H](CC(C)C)N(C)C(=O)[C@H](C(C)C)NC(=O)[C@H](CC(C)C)N(C)C(=O)CN(C)C1=O
Reply: 107

Task item: Give its recovery value. Item: CCC[C@@H]1NC(=O)[C@H](CC(C)C)N(C)C(=O)[C@H](C(C)C)N(C)C(=O)[C@H](CC(C)C)N(C)C(=O)[C@H](CC(C)C)N(C)C(=O)[C@@H](C)NC(=O)[C@H](CCC(N)=O)NC(=O)[C@H](CC(C)C)N(C)C(=O)[C@H](C(C)C)NC(=O)[C@H](CC(C)C)N(C)C(=O)CN(C)C1=O
Reply: 112

Task item: Give its recovery value. Item: CC(C)NCC(O)COc1ccc(CC(N)=O)cc1 (centres undefined) [ATENOLOL]
Reply: 78
